# METHOD: qHTS of pediatric cancer cell lines to identify multiple opportunities for drug repurposing: Confirmatory screen for Rh30 cells (AID 1347126); also: nearly all actives have a fitted effect of over 55% in size
# STATED_CONDITIONS: Rh30 rhabdomyosarcoma cell viability; series mostly up to 45.9 µM
Inconclusive results are not listed. Calls of active or inactive are those of the source. Calls follow the shape of the dose curve; as a rule, active = well fitted cell-killing curve with a large enough effect; inconclusive = small, poorly fitted or top-dose-only effect, or effect the other way; inactive = no such curve, though single readings can be large or run the other way.
Hi! Could you answer with just one of these? y for active, n for inactive

Some solved entries appear below for comparison.
[[record]]
molecule = "Nc1nc(Cl)nc2c1ncn2[C@@H]1O[C@H](CO)[C@@H](O)[C@@H]1F"
assigned_label = "y"

[[record]]
molecule = "CCCCCCCCCCCCOCCOCCOCCOCCOCCOCCOCCOCCOCCO"
assigned_label = "n"

[[record]]
molecule = "NC(N)=NN=C(/C=C/c1ccc([N+](=O)[O-])o1)/C=C/c1ccc([N+](=O)[O-])o1"
assigned_label = "y"

[[record]]
molecule = "CC1CCc2c(N3CCC(O)CC3)c(F)cc3c(=O)c(C(=O)O)cn1c23 (stereo not given)"
assigned_label = "n"


In the following, a different molecule is considered.
Which outcome did this test record for the molecule `O=C(CCCN1CC=C(n2c(=O)[nH]c3ccccc32)CC1)c1ccc(F)cc1` ?
n
